- Test system: CAPAN-1
- EXPERIMENTAL_DETAILS: Antiproliferative activity against human CAPAN-1 cells assessed as inhibition of cell growth incubated for 48 hrs by MTT assay
- Format: functional, cell-based
- SETUP_CONDITIONS: CAPAN-1, 48 h
METRIC_NAME: IC50 (µM)
Quick reminder: number only, in µM, skip the unit.

Prompt: Request - read-out IC50 | tested on CAPAN-1 | compound COc1cccc(-c2cc3cc(F)cc(C(N)=O)c3oc2=O)c1
Response: 4.26

Prompt: Please answer likewise for COc1cccc(-c2cc3cccc(C(N)=O)c3oc2=O)c1
Response: 4.6

Prompt: Please answer likewise for NC(=O)c1cc(F)cc2cc(-c3ccccc3O)c(=O)oc12
Response: 11.9

Prompt: Please answer likewise for NC(=O)c1cccc2cn(-c3ccc([C@@H]4CCCNC4)cc3)nc12
Response: 10.4

Prompt: Please answer likewise for NC(=O)c1cc(F)cc2cc(-c3cccs3)c(=O)oc12
Response: 17.2

---

- Tested on: SUM149PT
- EXPERIMENTAL_DETAILS: Antiproliferative activity against human SUM149PT cells assessed as inhibition of cell growth at 20 uM incubated for 48 hrs by MTT assay relative to control
- Assay type: functional
METRIC_NAME: inhibition at 20 µM

As a guide, the following entries are already answered.
COc1cc(OC)cc(-c2cc3cccc(C(N)=O)c3oc2=O)c1	> 60%
COc1cc(OC)cc(-c2cc3cc(F)cc(C(N)=O)c3oc2=O)c1	> 60%
COc1ccc(-c2cc3cccc(C(N)=O)c3oc2=O)cc1	> 60%

Now consider a different compound.
Prompt: Request - read-out inhibition at 20 µM | tested on SUM149PT | compound NC(=O)c1cccc2cc(-c3ccccc3)c(=O)oc12
Response: > 60%

---

Reported values of IC50 for individual entries
- Test system: SUM149PT
- EXPERIMENTAL_DETAILS: Antiproliferative activity against human SUM149PT cells assessed as inhibition of cell growth incubated for 48 hrs by MTT assay
- Format: functional, cell-based
Quick reminder: number only, in µM, skip the unit.

NC(=O)c1cc(F)cc2cc(-c3cccs3)c(=O)oc12	0.62

Prompt: Request the reported IC50 associated with COc1ccc(-c2cc3cc(F)cc(C(N)=O)c3oc2=O)cc1OC
Response: 4.09

---

- Tested on: CAPAN-1
- EXPERIMENTAL_DETAILS: Antiproliferative activity against human CAPAN-1 cells assessed as inhibition of cell growth incubated for 48 hrs by MTT assay
- Type: functional, cell-based
- SETUP_CONDITIONS: CAPAN-1, 48 h
Reported values of pIC50 for individual entries
Bear in mind: pIC50 is minus log10 of a mol/L concentration; give just that figure.

As a guide, the following entries are already answered.
NC(=O)c1cc(F)cc2cc(-c3ccc4c(c3)CCO4)c(=O)oc12	4.68
NC(=O)c1cccc2cc(-c3ccc(O)cc3)c(=O)oc12	4.72
NC(=O)c1cc(F)cc2cc(-c3ccsc3)c(=O)oc12	4.69
COc1ccc(-c2cc3cc(F)cc(C(N)=O)c3oc2=O)cc1OC	5.07
COc1ccc(-c2cc3cccc(C(N)=O)c3oc2=O)cc1O	4.82

Now consider a different molecule.
Prompt: Request the reported pIC50 associated with COc1cc(-c2cc3cc(F)cc(C(N)=O)c3oc2=O)ccc1O
Response: 5.50

---

- Test system: SUM149PT
- EXPERIMENTAL_DETAILS: Antiproliferative activity against human SUM149PT cells assessed as inhibition of cell growth incubated for 48 hrs by MTT assay
- Assay type: functional, cell-based
METRIC_NAME: pIC50
Bear in mind: pIC50 is minus log10 of a mol/L concentration; give just that figure.

As a guide, the following entries are already answered.
NC(=O)c1cccc2cn(-c3ccc([C@@H]4CCCNC4)cc3)nc12	5.15
NC(=O)c1cc(F)cc2cc(-c3ccc4c(c3)CCO4)c(=O)oc12	5.29

Prompt: Request the reported pIC50 associated with COc1cccc(-c2cc3cc(F)cc(C(N)=O)c3oc2=O)c1
Response: 6.21

Prompt: Please answer likewise for NC(=O)c1cc(F)cc2cc(-c3ccccc3O)c(=O)oc12
Response: 5.48

Prompt: Please answer likewise for NC(=O)c1cc(F)cc2cc(-c3ccsc3)c(=O)oc12
Response: 4.93

Prompt: Please answer likewise for NC(=O)c1cccc2cc(-c3ccc(O)cc3)c(=O)oc12
Response: 5.50

---

- Tested on: SUM149PT
- EXPERIMENTAL_DETAILS: Antiproliferative activity against human SUM149PT cells assessed as inhibition of cell growth incubated for 48 hrs by MTT assay
- Assay type: functional, cell-based
Reported values of IC50 for individual entries
Quick reminder: number only, in µM, skip the unit.

COc1ccc(-c2cc3cccc(C(N)=O)c3oc2=O)cc1O	4.82

Prompt: Request the reported IC50 associated with COc1cccc(-c2cc3cccc(C(N)=O)c3oc2=O)c1
Response: 4.93

Prompt: Please answer likewise for COc1cc(-c2cc3cc(F)cc(C(N)=O)c3oc2=O)ccc1O
Response: 3.18

From: ChEMBL document CHEMBL6074623
